test system: Klebsiella pneumonia; test: MIC against Gram-negative bacteria: Klebsiella pneumonia; format: cell-based; details: K. pneumonia; 10 h cultivation at 37° C.; 5×10^5 CFU/mL

Substance	MIC (μg/mL) K. pneumonia [µg/mL]
PRT146 (DRDECSFQPGPCSTLVQCFNTQGSFYCGACPTGWQGNGYICE; listed as Homo sapiens)	50
PRT802 (SNRCQCQNGALCNPITGACVCAAGFRGWRCE; listed as Homo sapiens)	12.5
PRT215 (YTQCTDGYEWDPVRQQCKDIDECDIVPDACKGGMKCVNHYGGYLCL; listed as Homo sapiens)	100
PRT151 (GCKYLSDINITRYNINCRENRACNELFHCQCDPGYAPPDCE; listed as Homo sapiens)	50
PRT153 (DCLACQGGSQRPCSGNGHCSGDGSRQGDGSCRCHMGYQGPLCT; listed as Homo sapiens)	12.5
PRT771 (VQDLCSKTTCKNDGVCTVRDGKAECRCQSGEDWWYMGERCE; listed as Homo sapiens)	12.5
PRT745 (RQHPCAQDNGGCSHICLVKGDGTTRCSCPMHLVLLQDELSCG; listed as Homo sapiens)	12.5
PRT227 (KGNNCRDSTLCPAYATCTNTVDSYYCACKQGFLSSNGQNHFKDPGVRCK; listed as Homo sapiens)	12.5
PRT789 (YGNDCHQRCQCQNGATCDHVTGECRCPPGYTGAFCE; listed as Homo sapiens)	12.5
PRT837 (RFSLCPGGCQSHGQCQPPGVCACEPGWGGPD; listed as Homo sapiens)	25
PRT754 (IQDLCAMEDHNCEQLCVNVPGSFVCQCYSGYALAEDGKRCV; listed as Homo sapiens)	25
PRT851 (DELDCGPSNCSQHGLCTETGCRCDAGWTGSNCS; listed as Homo sapiens)	12.5
PRT833 (CEANNGGCSHGCSHTSAGPLCTCPRGYELDTDQRTC; listed as Homo sapiens)	12.5
PRT886 (RGPRCSQPGETCLNGGKCEAANGTEACVCGGAFVGPRCQ; listed as Homo sapiens)	12.5
PRT224 (DVNECDMGAPCEQRCFNSYGTFLCRCHQGYELHRDGFSCS; listed as Homo sapiens)	12.5
PRT260 (CRAGNGGCHGLATCRAVGGGQRVCTCPPGFGGDGFSC; listed as Homo sapiens)	25
PRT788 (WGPHCTSRCQCKNGALCNPITGACHCAAGFRGWRCE; listed as Homo sapiens)	25
PRT261 (CAHGHGGCSPHANCTKVAPGQRTCTCQDGYMGDGELC; listed as Homo sapiens)	12.5
PRT262 (CLIHHGGCHIHAECIPTGPQQVSCSCREGYSGDGIRTC; listed as Homo sapiens)	25
PRT174 (CASSPCANGGTCRDGVNDFSCTCPPGYTGRNC; listed as Homo sapiens)	50
PRT177 (GPGPCDGNPCANGGSCSETPRSFECTCPRGFYGLRCE; listed as Homo sapiens)	25
PRT840 (GSARCGSGGPGSCPVPQECVPQDGAAGAGLCRCPQGWAGPHCR; listed as Homo sapiens)	25

====

Test system: Proteus mirabilis
Assay: MIC against Gram-negative bacteria: Proteus mirabilis
Type: cell-based
Settings: Proteus mirabilis; 5×10^5 CFU/mL; 10 h cultivation at 37° C.
Experimental: 1. Gram-negative bacteria, such as E. coli BL21, Pseudomonas aeruginosa, Klebsiella pneumonia, Enterobacter cloacae, Aeromonas hydrophila, Citrobacter diversus, Moraxella catarrhalis, Proteus mirabilis, Proteus vulgaris, Serratia marcescens, etc were streaked on solid LB medium and cultured respectively. Then, typical clones were picked, inoculated into common liquid LB medium respectively, and cultured at 37° C. with shaking at 185 rpm until the McFarland specific turbidity was 0.5. […]

Substance	Assayed system	U	MIC against P. mirabilis
PRT1406 (EADCIDPGCSNHGVCIHGECHCSPGWGGSNCE; listed as Homo sapiens)	Proteus mirabilis	µg/mL	12.5
PRT1438 (PVKSCSEPRCFNGGTCQQALYFSDFVCQCPEGFAGKCCE; listed as Homo sapiens)	Proteus mirabilis	µg/mL	50
PRT1394 (VRDGCPGLCFGNGRCTLDQNGWHCVCQVGWSGTGCN; listed as Homo sapiens)	Proteus mirabilis	µg/mL	12.5
PRT1479 (AKNECHPERTDGCQHFCLPGQESYTCSCAQGYRLGEDHKQCV; listed as Homo sapiens)	Proteus mirabilis	µg/mL	25
PRT1481 (PVNLCKPSPCMNEGSCVLQNGSYRCKCRDGWEGPHCE; listed as Homo sapiens)	Proteus mirabilis	µg/mL	12.5
PRT1356 (KEQRCPSDCHGQGRCVDGQCICHEGFTGLDCG; listed as Homo sapiens)	Proteus mirabilis	µg/mL	50
PRT1397 (PMNQCIDPSCGGHGSCIDGNCVCSAGYKGEHCE; listed as Homo sapiens)	Proteus mirabilis	µg/mL	25
PRT1475 (DINECKDPSNINGGCSQICDNTPGSYHCSCKNGFVMLSNKKDCK; listed as Homo sapiens)	Proteus mirabilis	µg/mL	25
PRT1474 (IPDQCSPLPCNEDGYMSCKDGKASFTCTCKPGWQGEKCE; listed as Homo sapiens)	Proteus mirabilis	µg/mL	50
PRT1401 (VCHPRCIEHGTCKDGKCECREGWNGEHCT; listed as Homo sapiens)	Proteus mirabilis	µg/mL	12.5
PRT1417 (RACHPRCAEHGTCRDGKCECSPGWNGEHCT; listed as Homo sapiens)	Proteus mirabilis	µg/mL	25
PRT1477 (DIDECSENMCAQLCVNYPGGYTCYCDGKKGFKLAQDQKSCE; listed as Homo sapiens)	Proteus mirabilis	µg/mL	25
